Values from patent US20240390349A1

- ASSAY OVERVIEW: LEN plasma concentrations during oral bridging period, CALIBRATE (Phase 2, ARV-naive PWH)
- Format: in vivo
- CONDITION LABEL: human, plasma, sc, 300 mg, SC LEN total, Week 20, read-out: Lower 90% CI of Concentration
- Description: The objective of this study was to evaluate the pharmacokinetics (PK) of LEN during oral bridging period (OBP) to assess the adequacy of 300-mg PO once-weekly (QW) regimen for maintaining therapeutic concentrations between missed SC LEN doses. During OBP, sparse PK samples were collected at the start of OBP and every ˜10-12 weeks (without regard to a prespecified time since dose) until SC LEN was resumed. […]
READOUT: concentration at 20 week (ng/mL)
The reply should be a number in ng/mL, with the unit left off.

Request: Please indicate concentration at 20 week recorded for CC(C)(C#Cc1ccc(-c2ccc(Cl)c3c(NS(C)(=O)=O)nn(CC(F)(F)F)c23)c([C@H](Cc2cc(F)cc(F)c2)NC(=O)Cn2nc(C(F)(F)F)c3c2C(F)(F)[C@@H]2C[C@H]32)n1)S(C)(=O)=O
Response: 43.7
